tested on: Dd2; assay: Cross-resistance EC50 assay, Dd2 parent; assay type: cell-based, Plasmodium falciparum; details: Plasmodium falciparum, DD2, 72 h, read-out: Dd2 (PARENT) Average EC50
measurementKind: EC50

| molecule | valueMeasured |
| --- | --- |
| CCN(CC)S(=O)(=O)c1ccc(-c2csc(Nc3ccc(C)c(C)c3)n2)cc1 | 368 nM |
| OC(CNC1CCCCC1)Cn1c2ccc(I)cc2c2cc(I)ccc21 (stereo not drawn) | 50 nM |
| FC(F)(F)c1cccc(Nc2nc3ccccc3nc2Nc2cccc(C(F)(F)F)c2)c1 | 113 nM |
| COc1ccc(N2CCN(C(CNC(=O)C3CCCCC3)c3ccc4c(c3)OCO4)CC2)cc1 (stereo not drawn) | 357 nM |
| Cc1nc2ccc3ccc(CNc4ccc(C(=O)CC(CCC(=O)O)C(=O)O)cc4)cc3c2c(=O)[nH]1.Cl (stereo not drawn) | 35 nM |
| COc1ccc(-c2nc(NC(=O)Cc3ccc4c(c3)OCCO4)sc2C)cc1 | 260 nM |
| c1cc(-c2cnc3ccc(-c4ccc(N5CCOCC5)cc4)nn23)ccn1 | 56 nM |
| COc1cc(-c2nc(-c3ccccc3)c(-c3ccccc3)[nH]2)cc(OC)c1O | 678 nM |

Go through the items and report each one's EC50.
1. Cc1ccc(Cn2c(N3CCC(C(=O)NCc4cccs4)CC3)nc3ccccc32)cc1
2. Cc1ccc(S(=O)(=O)n2cc(-c3ccnc(N)c3)c3cc(Br)cnc32)cc1
3. OC(CNC1CCCCC1)Cn1c2ccccc2c2ccccc21 (stereo not drawn)

OUT:
392 nM
766 nM
188 nM

====

For each of the molecules below, state its EC50 fold shift compared to asexual stage: Stage 5 Gametocyte EC50.
test system: Stage 5 gametocytes from P. falciparum NF54; assay: Late-stage (stage V) gametocyte survival assay, MitoTracker; type: cell-based, Plasmodium falciparum; details: gametocyte EC50 / 3D7 EC50
Give bare numbers.

Below: 6 molecules and their reported EC50 fold shift compared to asexual stage: Stage 5 Gametocyte EC50.
| molecule | valueMeasured |
| --- | --- |
| CC(C)c1cccc(C(NC(=O)C2Cc3ccccc3CN2C(=O)c2cccc(N3CCOCC3)c2)C2CCCC2)c1 (centres unmarked) | 2.19 |
| CN(C)S(=O)(=O)c1cc(-c2ccc3nccc(-c4cccc(S(N)(=O)=O)c4)c3c2)cnc1N | 1.39 |
| O=C(NCC(CCCN1CCC(c2c[nH]c3ccccc23)CC1)c1ccccc1)Nc1ccc(Cl)c(Cl)c1 (centres unmarked) | 16.40 |
| CC(C)(C)OC(=O)N1CCN(c2ccccc2NC(=O)c2cccc(C(F)(F)F)c2Oc2ccc(F)cc2)CC1 | 2.04 |
| CCN(CC)S(=O)(=O)c1ccc(-c2csc(Nc3ccc(C)c(C)c3)n2)cc1 | 0.99 |
| COc1ccc(-c2nc(NC(=O)Cc3ccc4c(c3)OCCO4)sc2C)cc1 | 33.66 |

Below: the item to evaluate.
IN: Suppose we examine the molecule Brc1ccc(Nc2nc3ccccc3nc2Nc2ccc(Br)cc2)cc1 ; what EC50 fold shift compared to asexual stage: Stage 5 Gametocyte EC50 value has been reported?
OUT: 11.35

====

test system: Stage 5 gametocytes from P. falciparum NF54; assay: Late-stage (stage V) gametocyte survival assay, MitoTracker; type: cell-based, Plasmodium falciparum; settings: gametocyte EC50 / 3D7 EC50
Entries whose EC50 fold shift compared to asexual stage: Stage 5 Gametocyte EC50 is below 20 take Yes; entries at or above 20 take No.

Answered examples (4):
| compound | assignedClass |
| --- | --- |
| Cc1nc2ccc3ccc(CNc4ccc(C(=O)CC(CCC(=O)O)C(=O)O)cc4)cc3c2c(=O)[nH]1.Cl (stereo not drawn) [MMV027634] | No |
| Nc1ccc(-c2nc3cc(Cc4ccc5[nH]c(-c6ccc(N)cc6)nc5c4)ccc3[nH]2)cc1 [MMV665943] | Yes |
| CN(C)CCCNCc1ccc(-c2ccc(Cl)c(Cl)c2)o1 [MMV673964] | Yes |
| Nc1ncc(-c2cn[nH]c2)cc1-c1nc2ccc(F)cc2[nH]1 [MMV023367] | No |

IN: Determine whether this compound shows EC50 fold shift compared to asexual stage: Stage 5 Gametocyte EC50 lower than 20 (ties excluded): Cc1ccc(Oc2ncccc2C(=O)Cc2cccc3cccnc23)c(C)c1 [MMV020746]
OUT: No

IN: Determine whether this compound shows EC50 fold shift compared to asexual stage: Stage 5 Gametocyte EC50 lower than 20 (ties excluded): CCCCCCCN(Cc1ccc(OC(C)(C)C(=O)OCC)cc1)C(=O)Nc1ccc(Cl)cc1OCC [MMV021735]
OUT: No

IN: Determine whether this compound shows EC50 fold shift compared to asexual stage: Stage 5 Gametocyte EC50 lower than 20 (ties excluded): Cc1ccc(Cn2c(N3CCC(C(=O)NCc4cccs4)CC3)nc3ccccc32)cc1 [MMV007564]
OUT: Yes

IN: Determine whether this compound shows EC50 fold shift compared to asexual stage: Stage 5 Gametocyte EC50 lower than 20 (ties excluded): CNCc1ccc2nc(-c3coc(Cc4cc(Cl)ccc4OCC(C)C)n3)[nH]c2c1.Cl.Cl [MMV026596]
OUT: Yes

IN: Determine whether this compound shows EC50 fold shift compared to asexual stage: Stage 5 Gametocyte EC50 lower than 20 (ties excluded): Cc1ccc(S(=O)(=O)n2cc(-c3ccnc(N)c3)c3cc(Br)cnc32)cc1 [MMV024114]
OUT: No

IN: Determine whether this compound shows EC50 fold shift compared to asexual stage: Stage 5 Gametocyte EC50 lower than 20 (ties excluded): COC(=O)c1ccc(C2C3=C(O)CC(c4ccc(F)cc4)CC3=Nc3ccccc3N2C(=O)c2ccccc2)cc1 (stereo not drawn) [MMV011438]
OUT: Yes

IN: Determine whether this compound shows EC50 fold shift compared to asexual stage: Stage 5 Gametocyte EC50 lower than 20 (ties excluded): OC(CNC1CCCCC1)Cn1c2ccc(I)cc2c2cc(I)ccc21 (stereo not drawn) [MMV665882]
OUT: Yes

IN: Determine whether this compound shows EC50 fold shift compared to asexual stage: Stage 5 Gametocyte EC50 lower than 20 (ties excluded): c1cc(-c2cnc3ccc(-c4ccc(N5CCOCC5)cc4)nn23)ccn1 [MMV668311]
OUT: Yes

====

test system: GNF449-R2 (PfATP4 I203L and P990R, parent Dd2); test: Cross-resistance EC50 assay, GNF449-R2; assay type: cell-based; settings: Plasmodium falciparum, SYBR green 72 hour assay, asynchronized parasites, 96-well or 1536-well format
measurementKind: EC50 (µM)
Answers are plain numbers, in µM.

Below: 8 compounds and their reported EC50.
| compound | unitAnnotation | EC50 |
| --- | --- | --- |
| Cc1c(C)n(Cc2ccc(F)cc2)c2ccc(C(=O)NCc3ccco3)cc12 [MMV008149] | µM | 1.36 |
| CN(C)CCCN(C)C(=O)C1Cc2cc(-c3ccccc3)ccc2N1S(=O)(=O)c1ccccc1 (stereo not drawn) [MMV028895] | µM | 2.76 |
| Cc1ccc(S(=O)(=O)n2cc(-c3ccnc(N)c3)c3cc(Br)cnc32)cc1 [MMV024114] | µM | 3.34 |
| CC(C)c1cccc(C(NC(=O)C2Cc3ccccc3CN2C(=O)c2cccc(N3CCOCC3)c2)C2CCCC2)c1 (stereo not drawn) [MMV028038] | µM | 0.555 |
| OC(CNC1CCCCC1)Cn1c2ccccc2c2ccccc21 (stereo not drawn) [MMV009063] | µM | 0.457 |
| COc1cc(-c2nc(-c3ccccc3)c(-c3ccccc3)[nH]2)ccc1OCCN(C)C [MMV027496] | µM | 2.33 |
| CN1CCN(c2ccc(Nc3c4ccccc4nc4ccccc34)cc2)CC1 [MMV006172] | µM | 0.31 |
| c1cc(-c2cnc3ccc(-c4ccc(N5CCOCC5)cc4)nn23)ccn1 [MMV668311] | µM | 0.03 |

Below: the item to evaluate.
IN: Recall the recorded EC50 for CN(C)CCCNCc1ccc(-c2ccc(Cl)c(Cl)c2)o1 [MMV673964] with GNF449-R2 (PfATP4 I203L and P990R, parent Dd2) and state it.
OUT: 1.05

====

test system: W2; test: Cross-resistance EC50 assay, W2 parent; assay type: cell-based, Plasmodium falciparum; settings: Plasmodium falciparum, 48 h, read-out: W2F6 (PARENT) Average EC50
Entries whose EC50 is below 500 nM take 1; entries at or above 500 nM take -1.

Answered examples (10):
| compound | assignedClass |
| --- | --- |
| CCOc1cc2c(cc1OCC)C(c1cc(Cl)ccc1O)NCC2 (stereo not drawn) | 1 |
| O=C(Nc1ccc(Cl)c(Cl)c1)Nc1ccc(Cl)c(Cl)c1 | -1 |
| CN(C)S(=O)(=O)c1cc(-c2ccc3nccc(-c4cccc(S(N)(=O)=O)c4)c3c2)cnc1N | 1 |
| COc1ccccc1CNC(=O)CCn1c(=O)[nH]c2ccsc2c1=O | -1 |
| Cc1ccc(Oc2ncccc2C(=O)Cc2cccc3cccnc23)c(C)c1 | 1 |
| CCN(CC)CCn1c(=N)n(CC(O)c2ccc(Cl)c(Cl)c2)c2ccccc21.Cl (stereo not drawn) | -1 |
| COc1ccc2c3c([nH]c2c1)[C@H](CO)N(C(C)=O)CC31CCN(C(=O)Nc2ccccc2F)CC1 | 1 |
| c1cncc(-c2cc(N3CCC(CN4CCOCC4)CC3)nc(-c3ccncc3)n2)c1 | 1 |
| CN(C)CCCNCc1ccc(-c2ccc(Cl)c(Cl)c2)o1 | -1 |
| O=C(NC(c1ccccc1)c1ccc2cccnc2c1O)c1ccccc1 (stereo not drawn) | -1 |

IN: Determine whether this compound shows EC50 lower than 500 nM (ties excluded): CCC(C)NCC(O)(c1ccc(Cl)cc1)c1ccc(Cl)cc1 (stereo not drawn)
OUT: 1

IN: Determine whether this compound shows EC50 lower than 500 nM (ties excluded): COc1cc2cc(C(=O)Nc3ccccc3)c(N)nc2cc1OC
OUT: -1

IN: Determine whether this compound shows EC50 lower than 500 nM (ties excluded): Cc1cc(Nc2ccc(OCc3ccccc3)cc2)nc2cc(O)ccc12
OUT: 1

IN: Determine whether this compound shows EC50 lower than 500 nM (ties excluded): Nc1ccc(-c2nc3cc(Cc4ccc5[nH]c(-c6ccc(N)cc6)nc5c4)ccc3[nH]2)cc1
OUT: 1
